study_system: T1, VPAC1 receptor (UniProt P32241 31-457, limits assumed)
T1 sequence (looked up): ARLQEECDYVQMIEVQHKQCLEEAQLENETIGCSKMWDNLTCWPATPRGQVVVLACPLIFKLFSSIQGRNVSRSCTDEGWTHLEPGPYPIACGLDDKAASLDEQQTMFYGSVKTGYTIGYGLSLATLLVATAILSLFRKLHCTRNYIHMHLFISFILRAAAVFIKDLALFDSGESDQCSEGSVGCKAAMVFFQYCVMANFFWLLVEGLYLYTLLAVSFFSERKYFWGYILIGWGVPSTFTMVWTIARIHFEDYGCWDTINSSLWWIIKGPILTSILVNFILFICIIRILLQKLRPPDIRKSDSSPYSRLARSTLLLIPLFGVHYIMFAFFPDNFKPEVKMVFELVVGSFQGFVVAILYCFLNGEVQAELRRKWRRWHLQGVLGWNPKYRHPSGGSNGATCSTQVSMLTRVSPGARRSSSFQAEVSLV
assay_overview: cell-based or functional assay
measure_name: EC50 (VPAC1R), cAMP inducing effect (nM)

binder	measure_name	endpoint_value
HSXGIFTXSYSRYRKQXAVKKYLAAVL (N-terminal acetyl (Ac-); Tz (aspartic acid with carboxyl group replaced by tetrazole) at positions 3 and 8; norleucine at position 17; C-terminal amide (NH2)) [Peptide 8]	EC50 (VPAC1R), cAMP inducing effect	0.046
HSXGIFTXSYSRYRKQLAVKKYLAAVL (Tz (aspartic acid with carboxyl group replaced by tetrazole) at positions 3 and 8; C-terminal amide (NH2)) [Peptide 7]	EC50 (VPAC1R), cAMP inducing effect	0.114

a: HSXGIFTXSYSRYRKQLAVKKYLAAVL (N-terminal acetyl (Ac-); Tz (aspartic acid with carboxyl group replaced by tetrazole) at positions 3 and 8; C-terminal amide (NH2)) [Peptide 9]
b: HSXGIFTXSYSRYRKQXAVKKYLAAVL (Tz (aspartic acid with carboxyl group replaced by tetrazole) at positions 3 and 8; norleucine at position 17; C-terminal amide (NH2)) [Peptide 6]
Query: Lower EC50 (VPAC1R), cAMP inducing effect: a or b ? // caller expects the label of the chosen entry
Reply: a
(a: 0.043 nM, b: 0.093 nM)
